Here the recorded IC50 is given for each entry.
# tested_on: Nicotinic acetylcholine receptor alpha9/alpha10 (Rattus norvegicus, UniProt P43144+Q9JLB5)
# Sequence (P43144 whole entry): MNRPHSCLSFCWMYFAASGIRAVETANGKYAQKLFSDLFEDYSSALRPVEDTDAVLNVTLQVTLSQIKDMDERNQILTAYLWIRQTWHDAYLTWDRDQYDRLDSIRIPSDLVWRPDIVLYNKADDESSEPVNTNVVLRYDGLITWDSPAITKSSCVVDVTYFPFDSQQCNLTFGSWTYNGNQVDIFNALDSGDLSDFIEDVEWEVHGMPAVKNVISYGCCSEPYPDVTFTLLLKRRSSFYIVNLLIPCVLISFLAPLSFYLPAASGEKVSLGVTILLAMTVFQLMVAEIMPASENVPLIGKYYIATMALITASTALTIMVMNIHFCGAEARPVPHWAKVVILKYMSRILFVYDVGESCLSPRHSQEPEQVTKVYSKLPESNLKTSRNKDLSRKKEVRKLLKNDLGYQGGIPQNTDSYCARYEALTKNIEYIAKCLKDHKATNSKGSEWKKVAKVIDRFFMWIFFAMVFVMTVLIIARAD
# Sequence (Q9JLB5 whole entry): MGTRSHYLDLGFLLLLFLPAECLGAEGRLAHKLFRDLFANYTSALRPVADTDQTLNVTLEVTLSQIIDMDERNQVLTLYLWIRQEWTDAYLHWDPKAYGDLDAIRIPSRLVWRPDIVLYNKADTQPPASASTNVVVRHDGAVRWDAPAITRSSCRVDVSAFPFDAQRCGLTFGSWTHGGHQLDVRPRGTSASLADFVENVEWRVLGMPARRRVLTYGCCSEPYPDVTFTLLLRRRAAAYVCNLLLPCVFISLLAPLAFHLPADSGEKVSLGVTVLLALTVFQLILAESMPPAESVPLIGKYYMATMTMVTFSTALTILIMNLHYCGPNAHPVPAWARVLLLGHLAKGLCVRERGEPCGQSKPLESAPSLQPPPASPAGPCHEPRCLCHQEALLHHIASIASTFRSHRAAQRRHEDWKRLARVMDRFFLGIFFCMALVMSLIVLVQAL
# assay_procedure: Antagonist activity at rat alpha9alpha10 nAChR expressed in xenopus oocytes assessed as inhibition of Ach- induced response at -70 mV holding potential preincubated for 5 mins followed by Ach stimulation by voltage-clamp based electrophysiological method
Where a SMILES comes first, the peptide text is derived from it. Bridges are numbered along the chain shown (N, C = ends).
property_label: IC50

compound="C[C@@H]1NC(=O)[C@@H]2CSSC[C@H](NC(=O)[C@@H](N)CCC(N)=O)C(=O)N[C@@H](CSSC[C@@H](C(N)=O)NC(=O)[C@H](Cc3cnc[nH]3)NC(=O)[C@H](CCC(=O)O)NC(=O)[C@H](Cc3cnc[nH]3)NC1=O)C(=O)N[C@@H](CO)C(=O)N[C@@H](CC(N)=O)C(=O)N1CCC[C@H]1C(=O)N1CCC[C@H]1C(=O)N2 (H-QCCSNPPCAHEHC-NH2; disulfide 2-8, 3-13)" measured="> 10 µM"
compound="C[C@@H]1NC(=O)[C@@H]2CSSC[C@H](NC(=O)CN)C(=O)N[C@@H](CSSC[C@@H](C(=O)N[C@@H](CCCNC(=N)N)C(=O)O)NC(=O)[C@H](Cc3cnc[nH]3)NC(=O)[C@H](CCC(=O)O)NC(=O)[C@H](Cc3cnc[nH]3)NC1=O)C(=O)N[C@@H](CO)C(=O)N[C@@H](CC(N)=O)C(=O)N1CCC[C@H]1C(=O)N1CCC[C@H]1C(=O)N2 (H-GCCSNPPCAHEHCR-OH; disulfide 2-8, 3-13)" measured="> 10 µM"
compound="C[C@@H]1NC(=O)[C@@H]2CSSC[C@H](NC(=O)[C@@H](N)CCC(N)=O)C(=O)N[C@@H](CSSC[C@@H](C(=O)N[C@@H](CCCNC(=N)N)C(=O)O)NC(=O)[C@H](Cc3cnc[nH]3)NC(=O)[C@H](CCC(=O)O)NC(=O)[C@H](Cc3cnc[nH]3)NC1=O)C(=O)N[C@@H](CO)C(=O)N[C@@H](CC(N)=O)C(=O)N1CCC[C@H]1C(=O)N1CCC[C@H]1C(=O)N2 (H-QCCSNPPCAHEHCR-OH; disulfide 2-8, 3-13)" measured="> 10 µM"
